Biological target: CYP11A1 (Homo sapiens)
Construct: endogenous in cells
Sequence (P05108 40-521): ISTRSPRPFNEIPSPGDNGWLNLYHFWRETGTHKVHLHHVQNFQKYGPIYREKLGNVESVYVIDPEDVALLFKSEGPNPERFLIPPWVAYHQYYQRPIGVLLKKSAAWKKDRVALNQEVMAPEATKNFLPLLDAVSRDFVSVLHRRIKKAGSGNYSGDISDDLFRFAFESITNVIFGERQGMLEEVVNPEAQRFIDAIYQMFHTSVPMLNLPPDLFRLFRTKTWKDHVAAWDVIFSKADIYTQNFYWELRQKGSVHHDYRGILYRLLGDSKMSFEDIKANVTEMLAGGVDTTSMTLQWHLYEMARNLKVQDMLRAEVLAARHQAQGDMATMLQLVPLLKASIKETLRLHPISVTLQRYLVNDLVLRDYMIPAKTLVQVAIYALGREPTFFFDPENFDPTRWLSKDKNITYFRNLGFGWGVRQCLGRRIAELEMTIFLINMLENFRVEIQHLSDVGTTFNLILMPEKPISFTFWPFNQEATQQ
Test: CYP11A1 inhibition: pregnenolone biosynthesis measured by ELISA in NCI-H295R cells
Details: NCI-H295R cells treated for 24 hours, 10 concentrations in duplicates, read-out: IC50 on CYP11A1 inhibition (Group)
Parameter: IC50

Use the examples below as a reference point.
> print(dat)
                                   compound  parameter  reported.value
1  O=C(c1cncc(C2=CCCCC2)c1)N1CCOc2ccccc21 [Compound 33]       IC50         < 50 nM
2  COc1ccc(-c2cncc(C(=O)N3CCCc4ncccc43)c2)cc1 [Compound 34]       IC50         < 50 nM

API: the following record is the query input.
Problem: Any idea what its IC50 is? The compound is Cc1cc(C)n(-c2cncc(C(=O)N3CCCc4ccccc43)n2)n1 [Compound 87]
Result: 51 to 200 nM
